Listed next: entries and their corresponding IC50.
Biological target: Recombinant BTK^WT kinase (Homo sapiens, UniProt Q06187)
Sequence (Q06187 whole entry): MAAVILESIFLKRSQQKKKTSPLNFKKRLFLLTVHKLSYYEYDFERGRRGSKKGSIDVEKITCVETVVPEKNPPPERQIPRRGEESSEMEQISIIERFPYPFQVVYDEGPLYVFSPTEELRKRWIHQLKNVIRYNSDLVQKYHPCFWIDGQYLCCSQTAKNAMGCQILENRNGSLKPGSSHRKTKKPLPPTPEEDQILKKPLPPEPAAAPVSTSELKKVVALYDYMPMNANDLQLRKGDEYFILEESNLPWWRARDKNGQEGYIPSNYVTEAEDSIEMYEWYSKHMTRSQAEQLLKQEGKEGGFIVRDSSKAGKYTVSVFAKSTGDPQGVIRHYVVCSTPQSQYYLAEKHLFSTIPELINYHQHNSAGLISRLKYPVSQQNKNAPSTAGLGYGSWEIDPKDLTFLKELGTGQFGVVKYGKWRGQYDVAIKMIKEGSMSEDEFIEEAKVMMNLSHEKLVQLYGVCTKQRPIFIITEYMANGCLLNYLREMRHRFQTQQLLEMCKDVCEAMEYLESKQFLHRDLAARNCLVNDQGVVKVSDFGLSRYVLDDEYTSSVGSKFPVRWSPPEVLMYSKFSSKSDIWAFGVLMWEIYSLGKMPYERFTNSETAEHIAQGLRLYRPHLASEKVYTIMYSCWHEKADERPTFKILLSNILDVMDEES
Test: BTK WT binding affinity (LanthaScreen TR-FRET)
Details: Kinase Tracer 236, 5 h incubation

Reference set, count: 3
COc1ccccc1C(=O)NCc1ccc(-c2nn(-c3ccc(CO)cc3)c(N)c2C(N)=O)cc1 :: < 10 nM
COc1ccccc1C(=O)NCc1ccc(-c2nn(C3CCC(C)(C)CC3)c(N)c2C(N)=O)cc1 :: < 10 nM
COc1ccc(F)cc1C(=O)NCc1cc(F)c(-c2nn(C3CCOC3)c(N)c2C(N)=O)cc1F (stereo not shown) :: 10 to 100 nM

API: the following record is the query input.
Input line: Query (compound): COc1ccccc1C(=O)NCc1ccc(-c2nn(-c3ccc(F)cc3F)c(N)c2C(N)=O)cc1 ; field requested: IC50
Output line: < 10 nM

---

Molecular target: Recombinant BTK^C481S kinase (Homo sapiens, UniProt Q06187, C481S)
Sequence (Q06187 whole entry C481S): as the sequence (Q06187 whole entry) above, with C481S counted along it
Experiment: BTK C481S binding affinity (LanthaScreen TR-FRET)
Conditions: Kinase Tracer 236, 5 h incubation
MEASUREMENT KIND: IC50

Some molecules with known IC50 results, for comparison:
CCN1CC(n2nc(-c3ccc(CNC(=O)c4cc(F)ccc4OC)cc3)c(C(N)=O)c2N)C(F)(F)C1 (stereo not shown) :: < 10 nM
COc1ccc(F)cc1C(=O)NCc1ccc(-c2nn(C(C(C)C)C(F)(F)F)c(N)c2C(N)=O)cc1 (stereo not shown) :: < 10 nM
COc1ccccc1C(=O)NCc1ccc(-c2nn(C3CC(C)(C)OC3(C)C)c(N)c2C(N)=O)cc1 (stereo not shown) :: 10 to 100 nM

Next up:
Input line: Record request: IC50 value, item COc1ccc(F)cc1C(=O)NCc1ccc(-c2nn(C3CCOCC3)c(N)c2C(N)=O)cc1F
Output line: < 10 nM

---

Target: Recombinant EGFR (Homo sapiens)
Test: EGFR binding affinity (LanthaScreen TR-FRET)
Conditions: Kinase Tracer 199, 5 h incubation
pIC50: −log10 of the molar value.
MEASUREMENT KIND: pIC50

Input line: Request the reported pIC50 associated with COCC(C)n1nc(-c2ccc(CNC(=O)c3ccccc3OC)cc2)c(C(N)=O)c1N (stereo not shown)
Output line: < 5.00

Input line: Can you share its pIC50? I mean this compound: COc1ccccc1C(=O)NCc1cc(F)c(-c2nn(C3CCCC3)c(N)c2C(N)=O)c(F)c1
Output line: < 5.00

Input line: Quick one: pIC50 of COc1ccccc1C(=O)NCc1ccc(-c2nn(C3CCOC3)c(N)c2C(N)=O)cc1F (stereo not shown) ?
Output line: 5.00 to 6.00

Input line: Recorded pIC50 for COc1ccccc1C(=O)NCc1ccc(-c2nn(-c3cccc(C)c3)c(N)c2C(N)=O)cc1 , please?
Output line: 6.00 to 7.00

---

Target: Recombinant EGFR (Homo sapiens)
Assay: EGFR binding affinity (LanthaScreen TR-FRET)
Details: Kinase Tracer 199, 5 h incubation
Listed compounds paired with reported IC50

COc1ccccc1C(=O)NCc1ccc(-c2nn(C3CCCC3)c(N)c2C(N)=O)cc1F [Example 93] :: 0.1 to 1 µM
COc1ccc(C)cc1C(=O)NCc1ccc(-c2nn(C3CCCC3)c(N)c2C(N)=O)cc1F [Example 92] :: > 10 µM
COc1ccc(F)cc1C(=O)NCc1ccc(-c2nn(C(C)C(F)(F)F)c(N)c2C(N)=O)cc1 (stereo not shown) [Example 120] :: 1 to 10 µM
COc1ccc(F)cc1C(=O)NCc1ccc(-c2nn(C(C)C3CCOC3)c(N)c2C(N)=O)cc1 (mixture of isomers) [Example 172] :: 1 to 10 µM
COc1ccccc1C(=O)NCc1ccc(-c2nn(C3CCOCC3F)c(N)c2C(N)=O)cc1 (single isomer, unassigned) [Example 96] :: 1 to 10 µM
COc1ccc(F)cc1C(=O)NCc1ccc(-c2nn(C3CCCOC3)c(N)c2C(N)=O)c(F)c1 (stereo not shown) [Example 107] :: > 10 µM

--- query ---
Input line: Can you look up IC50 on Recombinant EGFR (Homo sapiens) for COc1ccc(F)cc1C(=O)NCc1ccc(-c2nn(C3COCC3(F)F)c(N)c2C(N)=O)cc1 (stereo not shown) [Example 200] ?
Output line: 1 to 10 µM

---

Target: Recombinant BTK^C481S kinase (Homo sapiens, UniProt Q06187, C481S)
Construct: purchased SignalChem
Assay: BTK C481S binding affinity (LanthaScreen TR-FRET)
Conditions: Kinase Tracer 236, 5 h incubation
Method: BTK^C481S binding affinity of each compound tested was determined using a time-resolved fluorescence resonance energy transfer (TR-FRET) methodology. 5 nM Recombinant BTK^WT kinase, varying concentrations of inhibitor, 2 nM LanthaScreen™ Eu anti-His Antibody and 30 nM Kinase Tracer 236 was incubated in 1× LanthaScreen™ Kinase Buffer A for 5 h. […] The TR-FRET signal was read on a plate reader with an excitation wavelength of 340 nm and detection wavelengths of 615 and 665 nm. […]
Some molecules, each annotated with its measured IC50.

COc1ccccc1C(=O)NCc1ccc(-c2nn(C(C)CO)c(N)c2C(N)=O)cc1 (stereo not shown) [Example 135] :: < 0.01 µM
COc1ccc(F)cc1C(=O)NCc1cc(F)c(-c2nn(C3CCOCC3)c(N)c2C(N)=O)cc1F [Example 146] :: < 0.01 µM
COc1ccccc1C(=O)NCc1ccc(-c2nn(C3CCOCC3(C)C)c(N)c2C(N)=O)cc1 (stereo not shown) [Example 89] :: 0.01 to 0.1 µM

Let us examine a further case.
Input line: Endpoint output: IC50 of COc1ccccc1C(=O)NCc1ccc(-c2nn(C3CCC(F)(F)CC3)c(N)c2C(N)=O)cc1 [Example 68] . Value?
Output line: < 0.01 µM

---

Target: Recombinant BTK^WT kinase (Homo sapiens, UniProt Q06187)
Assay: BTK WT binding affinity (LanthaScreen TR-FRET)
Details: Kinase Tracer 236, 5 h incubation
pIC50: −log10 of the molar value.
Some molecules, each annotated with its measured pIC50.

In the examples that follow, each entry is paired with its recorded pIC50.
COc1ccccc1C(=O)NCc1ccc(-c2nn(C3CCCC3)c(NC(C)C)c2C(N)=O)cc1 [Example 72] :: 7.00 to 8.00
COc1ccccc1C(=O)NCc1ccc(-c2nn(CCO)c(N)c2C(N)=O)cc1 [Example 31] :: 7.00 to 8.00
COc1ccccc1C(=O)NC(C)c1ccc(-c2nn(C3CCCC3)c(N)c2C(N)=O)cc1 (centres unmarked) [Example 79] :: 6.00 to 7.00
COc1ccccc1C(=O)NCc1ccc(-c2nn(C3CCOCC3)c(N)c2C(N)=O)c(F)c1 [Example 99] :: 7.00 to 8.00
COc1ccc(F)cc1C(=O)NCc1ccc(-c2nn(C3CCCOC3)c(N)c2C(N)=O)c(F)c1F (centres unmarked) [Example 159] :: > 8.00
COc1ccc(F)cc1C(=O)NCc1ccc(-c2nn(C(C)(C)C(F)(F)F)c(N)c2C(N)=O)cc1 [Example 189] :: > 8.00
COc1ccc(F)cc1C(=O)NCc1ccc(-c2nn(C3CCOC3)c(N)c2C(N)=O)c(F)c1F (centres unmarked) [Example 182] :: 7.00 to 8.00

API: the following record is the query input.
Input line: Given COc1ccccc1C(=O)NCc1ccc(-c2nn(C3CCC(O)CC3)c(N)c2C(N)=O)cc1 (single isomer, unassigned) [Example 34a] , state its recorded pIC50.
Output line: > 8.00

---

Molecular target: Recombinant EGFR (Homo sapiens, UniProt P00533)
Sequence (P00533 25-1210): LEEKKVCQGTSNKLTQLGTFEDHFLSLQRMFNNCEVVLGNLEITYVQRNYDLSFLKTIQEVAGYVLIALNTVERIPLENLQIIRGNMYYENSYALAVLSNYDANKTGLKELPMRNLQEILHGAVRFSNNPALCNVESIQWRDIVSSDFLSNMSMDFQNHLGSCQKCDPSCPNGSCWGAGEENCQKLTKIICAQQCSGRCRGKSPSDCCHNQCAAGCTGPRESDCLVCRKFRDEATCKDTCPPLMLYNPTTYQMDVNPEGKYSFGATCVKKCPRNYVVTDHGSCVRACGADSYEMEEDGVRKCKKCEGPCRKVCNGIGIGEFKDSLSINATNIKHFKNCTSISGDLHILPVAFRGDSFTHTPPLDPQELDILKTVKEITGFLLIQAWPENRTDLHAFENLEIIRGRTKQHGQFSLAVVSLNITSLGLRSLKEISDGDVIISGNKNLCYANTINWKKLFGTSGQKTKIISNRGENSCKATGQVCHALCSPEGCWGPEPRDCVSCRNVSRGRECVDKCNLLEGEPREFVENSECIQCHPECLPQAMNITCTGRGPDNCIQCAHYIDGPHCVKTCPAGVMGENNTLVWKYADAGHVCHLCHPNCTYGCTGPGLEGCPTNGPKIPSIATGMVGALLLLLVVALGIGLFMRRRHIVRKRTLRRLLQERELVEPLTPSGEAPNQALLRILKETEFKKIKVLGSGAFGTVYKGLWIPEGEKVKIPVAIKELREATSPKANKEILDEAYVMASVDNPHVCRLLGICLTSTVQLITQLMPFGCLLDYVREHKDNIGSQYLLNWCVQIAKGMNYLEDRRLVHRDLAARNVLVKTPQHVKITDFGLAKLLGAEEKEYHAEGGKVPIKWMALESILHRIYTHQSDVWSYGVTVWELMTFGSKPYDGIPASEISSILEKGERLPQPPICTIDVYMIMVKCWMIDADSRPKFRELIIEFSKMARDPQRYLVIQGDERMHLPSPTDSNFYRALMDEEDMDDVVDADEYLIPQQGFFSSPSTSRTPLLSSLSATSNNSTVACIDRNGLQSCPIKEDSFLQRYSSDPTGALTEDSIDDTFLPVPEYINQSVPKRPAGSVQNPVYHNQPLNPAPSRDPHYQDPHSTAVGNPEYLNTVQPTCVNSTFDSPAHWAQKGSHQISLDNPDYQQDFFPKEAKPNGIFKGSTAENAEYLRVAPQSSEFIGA
Assay: EGFR binding affinity (LanthaScreen TR-FRET)
Settings: Kinase Tracer 199, 5 h incubation
pIC50: −log10 of the molar value.
Reported pIC50 is given for each of the following molecules.

Below, 6 molecules whose answers are already recorded.
CNc1c(C(N)=O)c(-c2ccc(CNC(=O)c3ccccc3OC)cc2)nn1C1CCC1 [Example 87] :: 6.00 to 7.00
COCOCCn1nc(-c2ccc(CNC(=O)c3ccccc3OC)cc2)c(C(N)=O)c1N [Example 7] :: < 5.00
COc1ccccc1C(=O)NCc1ccc(-c2nn(C3CCOC3C)c(N)c2C(N)=O)cc1 (single isomer, unassigned) [Example 84] :: 5.00 to 6.00
COc1ccccc1C(=O)NCc1ccc(-c2nn([C@@H]3CCc4ccccc43)c(N)c2C(N)=O)cc1 [Example 23] :: 6.00 to 7.00
COc1ccccc1C(=O)NCc1ccc(-c2nn(C3CCCC(O)C3)c(N)c2C(N)=O)cc1 (centres unmarked) [Example 48] :: 6.00 to 7.00
COc1ccccc1C(=O)NCc1ccc(-c2nn(C3CC(C)(C)OC3(C)C)c(N)c2C(N)=O)cc1 (centres unmarked) [Example 82] :: 5.00 to 6.00

Input line: Given the molecule COc1ccccc1C(=O)NCc1ccc(-c2nn(CC3(C)COC3)c(N)c2C(N)=O)cc1 [Example 8] , what is its reported pIC50?
Output line: < 5.00

Input line: I would be grateful if you could share the reported pIC50 for COc1ccccc1C(=O)NCc1ccc(-c2nn(C3CCOCC3)c(N)c2C(N)=O)cc1F [Example 116] .
Output line: 5.00 to 6.00
